# log10 of IC50 values compiled below
Test system: L1210
Experiment: Antiproliferative activity against mouse L1210 cells after 72 hrs by MTT assay
Type: functional, cell-based
Conditions: L1210, 72 h
measurement.type: log10 of IC50 (log10 of the value in µM)

>>> df
                                   compound  recorded_result
0  COc1cc(/C(=C/c2ccc(C)cc2)C(C)O)cc(OC)c1OC (stereo not drawn)             1.53
1  COc1ccc(/C=C(/c2cc(OC)c(OC)c(OC)c2)C(C)O)cc1O (stereo not drawn)             0.61
2  COc1cc(/C=C(/c2cc(OC)c(OC)c(OC)c2)C(C)O)cc(OC)c1OC (stereo not drawn)             1.71
3  COc1ccc(/C=C(/c2cc(OC)c(OC)c(OC)c2)C(C)O)cc1OC (stereo not drawn)             1.84
4  COc1ccc(/C=C(/c2cc(OC)c(OC)c(OC)c2)C(C)O)cc1 (stereo not drawn)             0.59
